Recorded values, source the RNAGym collection of RNA variant scans (doi:10.1073/pnas.2313332121).

# reported polymerase ribozyme fitness (log ratio); entries follow
B1: TPR t1 (parent)
chain: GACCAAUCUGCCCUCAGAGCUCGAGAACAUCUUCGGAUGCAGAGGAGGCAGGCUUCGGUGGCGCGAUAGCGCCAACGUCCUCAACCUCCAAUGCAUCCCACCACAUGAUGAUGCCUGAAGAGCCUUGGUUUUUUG

- Variants of: B1
- protocol: polymerase ribozyme fitness, log enrichment relative to wild type (log ratio); higher = more active; in vitro selection for triplet polymerase activity
measured-property: polymerase ribozyme fitness (log ratio)

| chain | readout-number |
| --- | --- |
| GACCAAUCUGCCCUCAGAGCUCGAGAACAUCUUCGGAUGCAGAGGAGGCAGGCUUCGGUGACGCGAUAGCGCCAACGUCCUCAACCUCCAAUGCAUCCCACCACAUGAAGAUGCCUGAAGAGCCUUGGUUUUUUG | -5.19 |
| GACCAAUCUGCUCUUAGAGCUCGAGAACAUCUUCGGAUGCAGAGGAGGCAGGCUUCGGUGGCGCGAUAGCGCCAACGUCCUCAACCUCCAAUGCAUCCCACCACAUGAUGAUGCCUGAAGAGCCUUGGUUUUUUG | -0.154 |
| GACCAAUCUGCCCUCAGAGCUCGAGAACAUCUUCGGAUGCAGAGGAGGCAGGCUUCGGUGGCGCGAUAGCGCCAAAGACCUCAACCUCCAAUGCAUCCCACCACAUGAUGAUGCCUGUAGAGCCUUGGUUUUUUG | 0.066 |
| GACCAAUCUGCCCUUAGAGCUCGAGAACAUCUUCGGAUGCAGAGGAGACAGGCUUCAGUGGCGCGAUAGCGCCAACGUCCUCAACAUCCAAUGCAUCCCACCACAUGAUGAUGCCUGAAGAGCCUUGGUUUUUUG | -3.37 |
| GACCAAUAUGCCCUCAGAGCUCGAGAACAUCUUCGGAUGCAGAGGAGGCAGGCUUCGGUGGCGCGAUAGCGCCAACGUCCUCAACCUCCAAUGCAUCCCUCCACAUGAUGAUGCCGGAAGAGCCUUGGUUUUAUU | -0.711 |
| GACGAAUCUGCCCUCAGAGCUCGAGAACAUCUUCGGAUGCAGAGGAGGCAGGCUUCACUGGCGCGAUAGCGCCAACGUCCUCAACCUCCAAUGCCUCCCACCACAUGAUGAUUCCUGAAGAGCCCUGGUUUUUUG | -6.6 |
| GACCAAUCUGCCCUCAGAGCUCGAGAACAUCUUCGGAUGCAGAGGAGGCAGGCUUCGGUGGCGCGAUAGCGCCAACGUCCUCAACCUCCAAUGCAUCCCACCACAUGAUGAAGCAUGAAGAGCCUUGGUUUUUUG | 1.16 |
| GACCAAUCUGCCCUCAGAGCUCGAGAACAUCUUCGGAUGCAGAGGAGGUAGGCUUCGGUGGCGCGCUAGCGCCAACGUCCUCAACGUUCAAAGCAUCCCACCACAUGAUGAUGUCUGAAGAGCCUUGGUUUUUUG | -5.32 |
| GACCAAUCUGCCCUCAGAGCUCGAGAACAUCUUCGGAUGCAGAGGAGGCAGCCUUCGGUGGCGCGAUAGCGCCAACGUCCUCAACCUCCAAUGCAUCCCACCACAUGAUGAUGCCUGAAGAGCUUUGGUUUUUUG | 1.26 |
| GACCAAUCUGCCCUCAGAGCUCGAGAACAUCUACGGAUGCAGAGGAGGCAGGCUUCUGUGGCGCGAUAGCGCCAACGUCCUCAACCUCCAAUGCAUCCCACCACAUGAUGAUGCCUGAAGAGCAUAGGUUUUUUG | -3.51 |
| GACCAAUCUGCCCUCAGAGCUCGAGAACAUCUUCGGAUGCAGAGGAGGCAGGCUUCGGUGGCGCGAUAGCGCCAACGUCCUCAACCUGCAAUGCAUCCCACCACAUGAUGAUGCCUGAAGAGCCUUGGUUCUUUG | -0.249 |
